Test system: Yap1 mRNA
assayComment: Antisense inhibition of human Yap1 in A-431 cells by cEt gapmers, single dose (Example 3, RTS36584)
Type: cell-based
conditionNotes: Table 9; A-431 cells, 5,000 cells per well, free uptake, 2,000 nM, approximately 48 hours; RTS36584; normalized to RIBOGREEN; Yap1 mRNA relative to untreated control cells
Strand notation (5' to 3'): a small letter for the sugar, then the base; units joined by * are phosphorothioate-linked, units joined directly phosphodiester-linked; [ ] holds rarer units or linkages, { } end groups; capitals alone tell only the bases. k = constrained ethyl (cEt); [5mC] = 5-methylcytosine; d = 2'-deoxy (DNA)
valueType: YAP1 (% UTC)

>>> reportedresult("958616 (antisense kG*kG*kT*dG*dG*dT*d[5mC]*dT*dT*dG*dT*dT*d[5mC]*kT*kT*kA) [Compound 958616]")
10
>>> reportedresult("958756 (antisense kG*kT*kG*dT*dT*dG*d[5mC]*dA*dT*dG*dA*d[5mC]*dA*kG*k[5mC]*k[5mC]) [Compound 958756]")
15
>>> reportedresult("958681 (kA*kA*kT*dT*dA*dA*d[5mC]*dA*d[5mC]*d[5mC]*dT*dG*dA*kG*k[5mC]*kT; antisense) [Compound 958681]")
84
>>> reportedresult("958571 (k[5mC]*kA*kA*d[5mC]*dA*dA*d[5mC]*dA*dT*dG*d[5mC]*dT*dA*kT*kG*kT; antisense) [Compound 958571]")
43
>>> reportedresult("958546 (k[5mC]*kA*kT*dA*d[5mC]*dT*d[5mC]*dT*dA*dG*dT*dT*dA*k[5mC]*kA*kT; antisense) [Compound 958546]")
6
>>> reportedresult("958491 (kA*k[5mC]*kT*dA*dA*dA*dT*dG*d[5mC]*dT*dG*dT*dG*kA*k[5mC]*kA; antisense) [Compound 958491]")
4
>>> reportedresult("958596 (kA*kG*k[5mC]*dA*dG*dT*dT*dA*dA*dG*d[5mC]*dA*d[5mC]*kT*kT*kT; antisense) [Compound 958596]")
3
>>> reportedresult("958586 (kG*kG*k[5mC]*dA*dG*d[5mC]*dA*d[5mC]*dG*dG*dT*dG*dT*kA*kA*kG; antisense) [Compound 958586]")
78
>>> reportedresult("958731 (antisense kG*k[5mC]*kT*d[5mC]*dT*dG*dT*d[5mC]*dA*dG*dT*dT*dA*kT*k[5mC]*k[5mC]) [Compound 958731]")
7
>>> reportedresult("958651 (kA*kA*k[5mC]*dT*dA*dA*dA*dG*dA*dG*dG*dA*d[5mC]*kT*kT*kA; antisense) [Compound 958651]")
62
>>> reportedresult("958721 (antisense kG*kT*kA*dG*dT*dA*dT*dA*dA*dT*dG*dA*dG*kT*kT*kA) [Compound 958721]")
1
>>> reportedresult("958511 (k[5mC]*kA*k[5mC]*dT*dA*d[5mC]*d[5mC]*dA*d[5mC]*dA*d[5mC]*dT*dA*kT*kT*kA; antisense) [Compound 958511]")
31
>>> reportedresult("958481 (antisense kG*k[5mC]*kA*dA*d[5mC]*dT*dG*dG*d[5mC]*dT*dT*dA*dT*kG*kG*kA) [Compound 958481]")
6

###

Each record here notes measured % UTC (Yap1 mRNA).
Test system: Yap1 mRNA
assayComment: Dose-dependent inhibition of human Yap1 in SNU-449 cells (Example 9, RTS36584)
Assay type: cell-based
conditionNotes: 125.0 nM, free uptake, approximately 48 hours
Strand notation (5' to 3'): a small letter for the sugar, then the base; units joined by * are phosphorothioate-linked, units joined directly phosphodiester-linked; [ ] holds rarer units or linkages, { } end groups; capitals alone tell only the bases. e = 2'-O-(2-methoxyethyl) (MOE); k = constrained ethyl (cEt); [5mC] = 5-methylcytosine; d = 2'-deoxy (DNA)
valueType: % UTC (Yap1 mRNA) (% UTC)

>>> reportedresult("1198470 (kT*kA*dT*dT*dA*dG*dA*dG*dT*dA*dT*eG*kT*eG*kG*e[5mC]; antisense) [compound 1198470]")
41
>>> reportedresult("1198788 (kA*eA*kG*dT*dG*dT*dA*dT*dG*dT*d[5mC]*dA*eG*eA*kA*kG) [compound 1198788]")
30
>>> reportedresult("1198409 (kA*dG*dT*dG*d[5mC]*dT*dT*dT*dG*dG*dA*kA*eG*kA*eT*k[5mC]; antisense) [compound 1198409]")
68
>>> reportedresult("1198718 (kG*eA*kA*dA*dT*dT*dG*dT*d[5mC]*dT*d[5mC]*dA*eT*eG*k[5mC]*k[5mC]; antisense) [compound 1198718]")
37

###

System: Yap1 mRNA
assayComment: Dose-dependent inhibition of human Yap1 in A-431 cells (Example 8, 10,000 cells per well, RTS4814)
Type: cell-based
conditionNotes: 500.0 nM; A-431 cells, 10,000 cells per well, free uptake, approximately 48 hours, RTS4814
Strand notation (5' to 3'): a small letter for the sugar, then the base; units joined by * are phosphorothioate-linked, units joined directly phosphodiester-linked; [ ] holds rarer units or linkages, { } end groups; capitals alone tell only the bases. k = constrained ethyl (cEt); [5mC] = 5-methylcytosine; d = 2'-deoxy (DNA)
valueType: Yap1 mRNA, % UTC (% UTC)

>>> reportedresult("1076461 (kG*kA*kT*dT*dA*dA*dT*dA*dT*dA*dG*d[5mC]*d[5mC]*k[5mC]*k[5mC]*kT; antisense) [compound 1076461]")
7
>>> reportedresult("1075744 (kT*kT*k[5mC]*dG*dG*dG*dT*dT*dA*dG*d[5mC]*dA*dG*kA*k[5mC]*kT; antisense) [compound 1075744]")
9
>>> reportedresult("1076327 (kG*kA*kT*dA*dA*dG*d[5mC]*dA*dA*dG*dG*dT*dT*k[5mC]*kT*k[5mC]; antisense) [compound 1076327]")
17
>>> reportedresult("1076369 (antisense kT*kA*kT*dT*d[5mC]*dG*dG*dT*dA*dT*dT*dT*dT*k[5mC]*kT*kA) [compound 1076369]")
6
>>> reportedresult("1076525 (kG*kA*kA*dT*dT*dT*dA*dT*dA*dT*d[5mC]*dA*dG*kG*kT*k[5mC]; antisense) [compound 1076525]")
5
>>> reportedresult("1074290 (antisense k[5mC]*kT*kG*dA*d[5mC]*dT*dG*dA*dT*dT*d[5mC]*dT*d[5mC]*kT*kG*kG) [compound 1074290]")
9

###

System: Yap1 mRNA
assayComment: Antisense inhibition of human Yap1 in A-431 cells by cEt gapmers, single dose (Example 2, RTS4814)
Format: cell-based
conditionNotes: Table 21; Yap1 mRNA, percent of untreated control; 3-10-3 cEt gapmers targeting SEQ ID NO.: 1 and 2
Strand notation (5' to 3'): a small letter for the sugar, then the base; units joined by * are phosphorothioate-linked, units joined directly phosphodiester-linked; [ ] holds rarer units or linkages, { } end groups; capitals alone tell only the bases. k = constrained ethyl (cEt); [5mC] = 5-methylcytosine; d = 2'-deoxy (DNA)
Mark FALSE for YAP1 (% UTC) values under 30 % UTC, and TRUE for everything at or above.

>>> qualitativelabel("1074503 (k[5mC]*kA*kA*d[5mC]*dT*dA*d[5mC]*dA*dA*dT*dA*dA*d[5mC]*k[5mC]*kA*kT; antisense) [Compound 1074503]")
"FALSE"
>>> qualitativelabel("1076263 (kA*kA*kT*dA*dA*d[5mC]*d[5mC]*dA*dA*dG*dT*dG*dA*kG*kT*kT; antisense) [Compound 1076263]")
"FALSE"
>>> qualitativelabel("1074119 (antisense kG*k[5mC]*kA*d[5mC]*dT*d[5mC]*dG*dG*dA*d[5mC]*d[5mC]*dT*dG*k[5mC]*kG*kG) [Compound 1074119]")
"TRUE"
>>> qualitativelabel("1075911 (kT*kG*kA*d[5mC]*dA*dA*dA*dA*d[5mC]*dA*dG*dG*d[5mC]*kA*k[5mC]*k[5mC]; antisense) [Compound 1075911]")
"TRUE"
>>> qualitativelabel("1076519 (antisense kA*k[5mC]*kA*d[5mC]*dA*dA*d[5mC]*dA*d[5mC]*dG*dA*d[5mC]*dA*kG*k[5mC]*kA) [Compound 1076519]")
"TRUE"
>>> qualitativelabel("1074407 (antisense kT*kA*kA*dA*dG*dT*dA*dT*d[5mC]*dT*dT*dG*d[5mC]*kT*kG*kG) [Compound 1074407]")
"FALSE"
>>> qualitativelabel("1074919 (antisense k[5mC]*kT*k[5mC]*dA*dA*dG*dT*dT*dA*d[5mC]*dA*dT*d[5mC]*k[5mC]*k[5mC]*kG) [Compound 1074919]")
"TRUE"
>>> qualitativelabel("1076391 (k[5mC]*kA*kA*dA*dT*dA*dT*dA*dG*dT*dT*dA*dG*k[5mC]*k[5mC]*kT; antisense) [Compound 1076391]")
"FALSE"
>>> qualitativelabel("1075015 (antisense k[5mC]*kA*kG*dA*dA*dT*dA*dA*dG*dT*dA*dT*dG*kA*kT*kT) [Compound 1075015]")
"TRUE"
>>> qualitativelabel("1075239 (antisense kT*k[5mC]*kT*dT*dA*dA*dA*d[5mC]*dA*dG*dG*dT*dG*k[5mC]*k[5mC]*kA) [Compound 1075239]")
"FALSE"
>>> qualitativelabel("1076487 (antisense kG*kT*kA*d[5mC]*dG*dA*dA*dA*d[5mC]*dG*dA*dA*dA*k[5mC]*kG*kG) [Compound 1076487]")
"FALSE"
